- Test system: GH3-TRE-Luc cell line
- conditions: read-out: AC50 (uM) modified / 1000; Tox21_110001=Tox21_110280; viability, 1 nM T3 present, 24 h
metric.name: CC50 (µM)

[[record]]
molecule = "CCN(CC)C(=S)SSC(=S)N(CC)CC [Disulfiram]"
system_under_test = "GH3-TRE-Luc cell line"
observed = 19.9


---

- test.protocol: in vitro
- conditions: rat, gh3-tre-luc cells, AC50 (uM) modified / 1000, Tox21_110001=Tox21_300810; viability, 1 nM T3 present, 24 h
metric.name: CC50 at 24 h

[[record]]
compound = "CCOC(=O)Cc1ccccc1 [Ethyl phenylacetate]"
observed = "> 90 µM"


---

- test.protocol: in vitro
- conditions: rat, gh3-tre-luc cells, AC50 (uM) modified / 1000, Tox21_110001=Tox21_112150; viability, 1 nM T3 present, 24 h
metric.name: CC50 at 24 h

[[record]]
compound_structure_string = "CCS(=O)(=O)C(C)(C)S(=O)(=O)CC"
observed = "> 50 µM"


---

Entries and their CC50 at 24 h values follow.
- test.protocol: in vitro
- conditions: rat, gh3-tre-luc cells, AC50 (uM) modified / 1000
metric.name: CC50 at 24 h

[[record]]
compound = "O=C1CCC(N2C(=O)c3ccccc3C2=O)C(=O)N1 (centres unmarked) [Thalidomide]"
metric_name = "CC50 at 24 h"
observed = "> 90 µM"

[[record]]
compound = "C[N+]1(C)[C@@H]2CC[C@H]1CC(OC(=O)c1c[nH]c3ccccc13)C2 (some centres unmarked) [Tropisetron methyliodide]"
metric_name = "CC50 at 24 h"
observed = "> 50 µM"

[[record]]
compound = "CO[C@@H]1[C@@H](OC(N)=O)[C@@H](O)[C@H](Oc2ccc3c(O)c(NC(=O)c4ccc(O)c(CC=C(C)C)c4)c(=O)oc3c2C)OC1(C)C [Novobiocin sodium]"
metric_name = "CC50 at 24 h"
observed = "> 20 µM"

[[record]]
compound = "Nc1cnn(-c2ccccc2)c(=O)c1Cl"
metric_name = "CC50 at 24 h"
observed = "> 90 µM"

[[record]]
compound = "CNCCS(=O)(=O)O [Sodium 2-(methylamino)ethanesulfonate]"
metric_name = "CC50 at 24 h"
observed = "> 90 µM"

[[record]]
compound = "C[C@]12CC[C@H]3[C@@H](CCC4=CC(=O)CC[C@@H]43)[C@@H]1CC[C@@H]2O"
metric_name = "CC50 at 24 h"
observed = "> 90 µM"

[[record]]
compound = "FC(F)(Cl)C(F)(Cl)Cl"
metric_name = "CC50 at 24 h"
observed = "> 90 µM"

[[record]]
compound = "CCCN1C[C@H](CSC)C[C@@H]2c3cccc4[nH]cc(c34)C[C@H]21 [Pergolide methanesulfonate]"
metric_name = "CC50 at 24 h"
observed = "> 50 µM"


---

- test.protocol: in vitro
- conditions: rat, gh3-tre-luc cells, AC50 (uM) modified / 1000, Tox21_110001=Tox21_302939; viability, 1 nM T3 present, 24 h
metric.name: CC50 at 24 h

[[record]]
compound_structure_string = "COCCl"
metric_name = "CC50 at 24 h"
observed = "> 30 µM"


---

- test.protocol: in vitro
- conditions: rat, gh3-tre-luc cells, AC50 (uM) modified / 1000
Structures can show the parent of a compound that is named as a salt.
Entries and their CC50 at 24 h values follow.
metric.name: CC50 at 24 h (µM)

[[record]]
compound = "O=c1[nH]c2cc(C(F)(F)F)c(N3CCOCC3)cc2n(CP(=O)(O)O)c1=O"
metric_name = "CC50 at 24 h"
readout_qualifier = ">"
observed = 50

[[record]]
compound = "CCC1=C[C@@H]2CN(C1)Cc1c([nH]c3ccccc13)[C@@](C(=O)OC)(c1cc3c(cc1OC)N(C)[C@H]1[C@@](O)(C(=O)OC)[C@H](OC(C)=O)[C@]4(CC)C=CCN5CC[C@]31[C@@H]54)C2 [Vinorelbine tartrate]"
metric_name = "CC50 at 24 h"
readout_qualifier = "="
observed = 6.67

[[record]]
compound = "CC1CC(=O)CC(C)(C)C1 (centres unmarked)"
metric_name = "CC50 at 24 h"
readout_qualifier = ">"
observed = 90

[[record]]
compound = "Oc1ccc(C(O)CNCCCCCCNCC(O)c2ccc(O)c(O)c2)cc1O (centres unmarked) [Hexoprenaline sulfate]"
metric_name = "CC50 at 24 h"
readout_qualifier = "="
observed = 20.9

[[record]]
compound = "C[C@H](/C=C/[C@H](C)C(C)(C)O)[C@H]1CC[C@H]2/C(=C/C=C3C[C@@H](O)C[C@H](O)C3)CCC[C@]12C"
metric_name = "CC50 at 24 h"
readout_qualifier = "="
observed = 27

[[record]]
compound = "Cc1c(N)c(=O)n(-c2ccccc2)n1C"
metric_name = "CC50 at 24 h"
readout_qualifier = ">"
observed = 20

[[record]]
compound = "O=C(Nc1ccccc1)N(Cc1ccc(Cl)cc1)C1CCCC1"
metric_name = "CC50 at 24 h"
readout_qualifier = "="
observed = 54.7

[[record]]
compound = "CC(C)(C)NCC(O)c1ccc(O)c(CO)c1 (centres unmarked)"
metric_name = "CC50 at 24 h"
readout_qualifier = ">"
observed = 90


---

- Tested on: GH3-TRE-Luc cell line
- conditions: read-out: AC50 (uM) modified / 1000; Tox21_110001=Tox21_200708; viability, 1 nM T3 present, 24 h
metric.name: CC50 (µM)

[[record]]
compound_structure_string = "CCCCCCCC[n+]1ccn(C)c1"
system_under_test = "GH3-TRE-Luc cell line"
metric_name = "CC50"
observed = 75.9


---

- Test system: GH3-TRE-Luc cell line
- conditions: read-out: AC50 (uM) modified / 1000; Tox21_110001=Tox21_201554; viability, 1 nM T3 present, 24 h
metric.name: CC50

[[record]]
compound = "CN(C)C(=S)SC(=S)N(C)C [Tetramethylthiuram monosulfide]"
observed = "1.5 µM"


---

- test.protocol: in vitro
- conditions: rat, gh3-tre-luc cells, AC50 (uM) modified / 1000
Entries and their CC50 at 24 h values follow.
metric.name: CC50 at 24 h

[[record]]
compound = "CS(=O)(=O)OC[C@H](O)[C@@H](O)COS(C)(=O)=O"
observed = "> 50 µM"

[[record]]
compound = "C[C@H](O)CCO"
observed = "> 90 µM"

[[record]]
compound = "Cc1c(I)c(=O)n(-c2ccccc2)n1C [Iodoantipyrine]"
observed = "> 50 µM"

[[record]]
compound = "O=S1(=O)CC(Cl)(Cl)C(Cl)(Cl)C1"
observed = "1.02 µM"

[[record]]
compound = "C[C@@]12C(=O)OC(=O)[C@]1(C)[C@H]1CC[C@@H]2O1"
observed = "2.01 µM"

[[record]]
compound = "C[C@]12CCC(=O)C=C1CC[C@@H]1[C@@H]2CC[C@@]2(C)[C@H]1CC[C@]2(O)C(=O)CO"
observed = "> 50 µM"

[[record]]
compound = "CC(CN=Cc1ccccc1O)N=Cc1ccccc1O (stereo not shown)"
observed = "> 90 µM"

[[record]]
compound = "O=C(CCl)Nc1ccccc1 [2-Chloro-N-phenylacetamide]"
observed = "23.7 µM"

[[record]]
compound = "CCCCCOC(=O)CCC [Pentyl butyrate]"
observed = "> 90 µM"

[[record]]
compound = "CCCCCCCCOC(=O)c1ccc(C(=O)OCCCCCCCC)c(C(=O)OCCCCCCCC)c1 [Trioctyl trimellitate]"
observed = "> 90 µM"


---

- test.protocol: in vitro
- conditions: rat, gh3-tre-luc cells, AC50 (uM) modified / 1000
Counter-ions that a name gives are not always drawn.
metric.name: CC50 at 24 h

[[record]]
molecule = "ICCc1ccccc1"
observed = "> 90 µM"

[[record]]
molecule = "O=C(Nc1ccc([N+](=O)[O-])cc1Cl)c1cc(Cl)ccc1O [Niclosamide]"
observed = "0.487 µM"

[[record]]
molecule = "CC[C@H]1NC(=O)[C@@H](NC(=O)c2ncccc2O)[C@@H](C)OC(=O)[C@H](c2ccccc2)NC(=O)[C@@H]2CC(=O)CCN2C(=O)[C@H](Cc2ccccc2)N(C)C(=O)[C@@H]2CCCN2C1=O"
observed = "> 50 µM"

[[record]]
molecule = "CC[C@]12CCCN3CCc4c(n(c5ccccc45)C(=O)C1)[C@@H]32 [(-)-Eburnamonine]"
observed = "7.18 µM"

[[record]]
molecule = "COc1ccc2cc3[n+](cc2c1OC)CCc1cc2c(cc1-3)OCO2 [Berberine chloride]"
observed = "88.5 µM"

[[record]]
molecule = "CCCC(C)c1ccccc1O (centres unmarked)"
observed = "54.4 µM"

[[record]]
molecule = "CCCCN(CCCC)C(=S)S [Sodium dibutylcarbamodithioate]"
observed = "> 90 µM"

[[record]]
molecule = "Fc1ccc([C@@]2(Cn3cncn3)O[C@@H]2c2ccccc2Cl)cc1 (racemic)"
observed = "> 90 µM"

[[record]]
molecule = "CCc1ccc(C(=O)NN(C(=O)c2cc(C)cc(C)c2)C(C)(C)C)cc1 [Tebufenozide]"
observed = "2.75 µM"

[[record]]
molecule = "CC(C)(C)C(=O)c1ccccc1"
observed = "> 90 µM"

[[record]]
molecule = "O=C(O)Cc1ccc(-c2ccccc2)cc1"
observed = "> 20 µM"

[[record]]
molecule = "CCCCOC(=O)CCCCCCCCC(=O)OCCCC [Dibutyl decanedioate]"
observed = "> 90 µM"

[[record]]
molecule = "CCCCOCC(C)OCC(C)O (centres unmarked)"
observed = "> 90 µM"

[[record]]
molecule = "N#Cc1nc(Cl)c(Cl)c(Cl)c1Cl"
observed = "3 µM"

[[record]]
molecule = "CC(C)OC(=O)C(C)(C)Oc1ccc(C(=O)c2ccc(Cl)cc2)cc1 [Fenofibrate]"
observed = "78.6 µM"

[[record]]
molecule = "CC(C)OC(=O)C(C)N(C(=O)c1ccccc1)c1ccc(F)c(Cl)c1 (centres unmarked)"
observed = "50 µM"

[[record]]
molecule = "C=CCOc1cc(Cl)ccc1C(=O)NCCN(CC)CC [Alloclamide]"
observed = "9.52 µM"

[[record]]
molecule = "CC(C)C[C@H](NC(=O)[C@@H](COC(C)(C)C)NC(=O)[C@H](Cc1ccc(O)cc1)NC(=O)[C@H](CO)NC(=O)[C@H](Cc1c[nH]c2ccccc12)NC(=O)[C@H](Cc1cnc[nH]1)NC(=O)[C@@H]1CCC(=O)N1)C(=O)N[C@@H](CCCNC(=N)N)C(=O)N1CCC[C@H]1C(=O)NNC(N)=O [Goserelin acetate]"
observed = "> 50 µM"

[[record]]
molecule = "CC(=O)Nc1ccc(OCC(O)CNC(C)C)cc1 (centres unmarked)"
observed = "> 50 µM"

[[record]]
molecule = "COCc1cnc(C2=NC(C)(C(C)C)C(=O)N2)c(C(=O)O)c1 (centres unmarked)"
observed = "> 90 µM"

[[record]]
molecule = "C[C@@]1(c2ccc(Oc3ccccc3)cc2)OC(=O)N(Nc2ccccc2)C1=O (racemic)"
observed = "39 µM"

[[record]]
molecule = "CCC(COC(=O)c1cc(OC)c(OC)c(OC)c1)(c1ccccc1)N(C)C (centres unmarked) [Trimebutine maleate]"
observed = "> 50 µM"

[[record]]
molecule = "C/C=C/C=C/CCCCCCCO"
observed = "79.4 µM"

[[record]]
molecule = "c1ccc(C2CC2)c(OCC2=NCCN2)c1"
observed = "> 50 µM"

[[record]]
molecule = "CNCc1ccc(NC(=O)c2c[nH]c3c2C(=O)CCC3)cc1"
observed = "> 90 µM"

[[record]]
molecule = "CCCCCCCCO[C@@H]1O[C@H](CO)[C@@H](O)[C@H](O)[C@H]1O [Octyl beta-D-glucopyranoside]"
observed = "> 90 µM"

[[record]]
molecule = "CC1(COc2ccc(CC3SC(=O)NC3=O)cc2)CCCCC1 (centres unmarked)"
observed = "26.4 µM"

[[record]]
molecule = "C=CCOC(=O)C(C)(C)OC(=O)c1cc(-n2c(=O)cc(C(F)(F)F)n(C)c2=O)ccc1Cl"
observed = "> 90 µM"

[[record]]
molecule = "Cc1cc2c(cc1S(N)(=O)=O)S(=O)(=O)CCC2"
observed = "> 20 µM"

[[record]]
molecule = "C=CC(C)(CCC=C(C)C)OC=O (centres unmarked) [Linalyl formate]"
observed = "> 90 µM"

[[record]]
molecule = "O=C1CCCCCCCCCCCN1"
observed = "> 90 µM"

[[record]]
molecule = "C=C1C[C@]23C[C@@]1(O)CC[C@H]2[C@@]12C=C[C@H](O)[C@@](C)(C(=O)O1)[C@H]2[C@@H]3C(=O)O"
observed = "> 90 µM"

[[record]]
molecule = "C=CC1CC=CCC1 (centres unmarked)"
observed = "> 90 µM"

[[record]]
molecule = "CC(=O)[C@@]1(O)CC[C@H]2[C@@H]3C=C(Cl)C4=CC(=O)CC[C@]4(C)[C@H]3CC[C@@]21C"
observed = "> 50 µM"

[[record]]
molecule = "O=C(O)c1ccc(S(=O)(=O)O)cc1C(=O)O"
observed = "> 90 µM"

